test system: CAKI-1; test: NCI tumour cell line growth inhibition, 48 h
The source made the active and inactive calls. Rule as the data show it: active = GI50 up to about 1.1 µM and inactive = higher. *1 amine or outer side, *2 acyl side, *3 side chain or, on linkers, in order; H or OH if unused. Where a SMILES comes first, the peptide text is derived from it. [ ]: non-standard residue; d: D form. The star is where a group is joined. ξ: configuration not given here. X26 = O=C([C@H]1CCC[C@H]1N[*:1])[*:2]; ξW = NC(Cc1c[nH]c2ccccc12)C(=O)O; ξF = NC(Cc1ccccc1)C(=O)O; Boc = CC(C)(C)OC(=O)*; ξK = NCCCCC(N)C(=O)O; ξT = CC(O)C(N)C(=O)O; tBu = CC(C)(C)*
Pick one: true (1) = active, false (0) = inactive

INPUT: Assay result, entry CC(OC(C)(C)C)C1NC(=O)C(CCCCNC(=O)OC(C)(C)C)NC(=O)C(Cc2c[nH]c3ccccc23)NC(=O)C(Cc2ccccc2)NC(=O)[C@H]2CCC[C@H]2NC(=O)C(Cc2ccccc2)NC1=O (stereo not given in full) (cyclo([X26][ξF][ξW][ξK](Boc)[ξT](tBu)[ξF])) — outcome?
OUTPUT: false (0)

INPUT: Assay result, entry `Cc1ccc2c(c1)CN1c3ccc(C)cc3CN2C1c1ccccc1O` — outcome?
OUTPUT: false (0)

INPUT: Assay result, entry `CC(C)(C)OC(=O)CN1CCNCCN(CC(=O)OC(C)(C)C)CCNCC1` — outcome?
OUTPUT: false (0)

INPUT: Assay result, entry `CN(C)CCNc1ccc2c(=O)n(CCN(C)C)c(=O)n3c4ccccc4c(=O)c1c23` — outcome?
OUTPUT: true (1)

INPUT: Assay result, entry `CCC1=C(C[C@H]2NCCc3cc(OC)c(OC)cc32)C[C@H]2c3cc(OC)c(OC)cc3CCN2C1` — outcome?
OUTPUT: true (1)

INPUT: Assay result, entry CN(CCCCCl)P(=O)(OCc1ccc([N+](=O)[O-])o1)OC[C@H]1O[C@@H](n2cc(F)c(=O)[nH]c2=O)C[C@@H]1O (stereo not given in full) — outcome?
OUTPUT: true (1)

INPUT: Assay result, entry CCC(C)[C@@H](NC1=C(Cl)C(=O)c2c(O)ccc(O)c2C1=O)C(=O)OC (stereo not given in full) — outcome?
OUTPUT: false (0)

INPUT: Assay result, entry `C[C@@H](Br)[C@@H]1CC[C@H]2c3[nH]c4ccccc4c3CCN2C1` — outcome?
OUTPUT: false (0)

INPUT: Assay result, entry CNC(=O)/C=C/C1=CN2C(=O)c3ccc(C)c(O)c3NC(OC)C2C1 (stereo not given) — outcome?
OUTPUT: true (1)

INPUT: Assay result, entry O=C1N=C(c2ccccc2)OC1C(=O)c1ccccc1 (stereo not given) — outcome?
OUTPUT: false (0)

INPUT: Assay result, entry `O=C1C=C(Nc2ccc(Cl)cc2C(=O)c2ccccc2)c2ccccc2C1=O` — outcome?
OUTPUT: false (0)

INPUT: Assay result, entry `O=S(=O)(O)c1ccc(Nc2ccnc3ccccc23)cc1` — outcome?
OUTPUT: false (0)

INPUT: Assay result, entry Cn1/c(=N\N=C2\C=C3CCCCC3(C)CC2)sc2ccccc21 (stereo not given) — outcome?
OUTPUT: false (0)

INPUT: Assay result, entry `O=C1/C(=C\c2ccccc2)c2ccccc2N1Cc1ccccc1` — outcome?
OUTPUT: false (0)

INPUT: Assay result, entry NC1N=Nc2ccccc21 (stereo not given) — outcome?
OUTPUT: false (0)

INPUT: Assay result, entry `O=C(Nc1cccc([N+](=O)[O-])c1)c1nnn(-c2cccc([N+](=O)[O-])c2)c1O` — outcome?
OUTPUT: false (0)

INPUT: Assay result, entry `O=C(Nc1ccn(CCOC(=O)c2ccccc2)c(=O)n1)c1ccccc1` — outcome?
OUTPUT: false (0)

INPUT: Assay result, entry `CCOP(=O)(OCC)/C(=C\n1ccc(=O)[nH]c1=S)C(=O)OC` — outcome?
OUTPUT: false (0)

INPUT: Assay result, entry `Oc1c(O)c(Cc2ccccc2)c(Cc2ccccc2)c(Cc2ccccc2)c1Cc1ccccc1` — outcome?
OUTPUT: false (0)

INPUT: Assay result, entry O=NN1C(c2ccccc2)C2CCCC(C2=O)C1c1ccccc1 (stereo not given) — outcome?
OUTPUT: false (0)
